System: 885512-296-R-J2-PDC complex spheroid viability
assay-method-text: Anticancer human tumor 885512-296-R-J2-PDC patient-derived breast carcinoma cell line growth inhibition
study-conditions: second compound 0.1 µM; first compound 0.00316 µM; hits give low values
Threshold-based label: viability, T/C under 20% gives Met, viability, T/C not under 20% gives Not met.

| molecule | classification |
| --- | --- |
| CC(C)CC(NC(=O)CNC(=O)c1cc(Cl)ccc1Cl)B1OC(=O)CC(CC(=O)O)(C(=O)O)O1 (stereo unspecified) + NC1CCC(NC2CC2c2ccccc2)CC1 | Not met |
| CC(C)CC(NC(=O)C(Cc1ccccc1)NC(=O)c1cnccn1)B(O)O (stereo unspecified) + NC1CCC(NC2CC2c2ccccc2)CC1 | Met |
| Cn1ncnc1C1c2n[nH]c(=O)c3cc(F)cc(c23)NC1c1ccc(F)cc1 (stereo unspecified) + NC1CCC(NC2CC2c2ccccc2)CC1 | Not met |
| CC1COCCN1c1cc(-c2ccnn2C)c2ccnc(-c3ccn[nH]3)c2n1 (stereo unspecified) + NC1CC1c1ccc(-c2cccc(O)c2)cc1 | Met |
| O=C(C=Cn1cnc(-c2cc(C(F)(F)F)cc(C(F)(F)F)c2)n1)NNc1cnccn1 + NC1CCC(NC2CC2c2ccccc2)CC1 | Not met |
| COc1cc(Nc2ncc3c(n2)-c2ccc(Cl)cc2C(c2c(F)cccc2OC)=NC3)ccc1C(=O)O + NC1CC1c1ccc(-c2cccc(O)c2)cc1 | Not met |
| CC[C@@]1(O)C(=O)OCc2c1cc1n(c2=O)Cc2cc3c(CN(C)C)c(O)ccc3nc2-1 + NC1CC1c1ccc(-c2cccc(O)c2)cc1 | Met |
| CC[C@@]1(O)C(=O)OCc2c1cc1n(c2=O)Cc2cc3c(CN(C)C)c(O)ccc3nc2-1 + NC1CCC(NC2CC2c2ccccc2)CC1 | Met |
| COc1cc(Nc2ncc3c(n2)-c2ccc(Cl)cc2C(c2c(F)cccc2OC)=NC3)ccc1C(=O)O + NC1CCC(NC2CC2c2ccccc2)CC1 | Not met |
| Cn1ncnc1C1c2n[nH]c(=O)c3cc(F)cc(c23)NC1c1ccc(F)cc1 (stereo unspecified) + NC1CC1c1ccc(-c2cccc(O)c2)cc1 | Not met |
| CC1COCCN1c1cc(-c2ccnn2C)c2ccnc(-c3ccn[nH]3)c2n1 (stereo unspecified) + NC1CCC(NC2CC2c2ccccc2)CC1 | Not met |
| CC(C)CC(NC(=O)C(Cc1ccccc1)NC(=O)c1cnccn1)B(O)O (stereo unspecified) + NC1CC1c1ccc(-c2cccc(O)c2)cc1 | Met |
| CC(C)CC(NC(=O)CNC(=O)c1cc(Cl)ccc1Cl)B1OC(=O)CC(CC(=O)O)(C(=O)O)O1 (stereo unspecified) + NC1CC1c1ccc(-c2cccc(O)c2)cc1 | Not met |
| Nc1ncn(C2CC(O)C(CO)O2)c(=O)n1 (stereo unspecified) + NC1CCC(NC2CC2c2ccccc2)CC1 | Not met |
| Nc1ncn(C2CC(O)C(CO)O2)c(=O)n1 (stereo unspecified) + NC1CC1c1ccc(-c2cccc(O)c2)cc1 | Not met |
| O=C(C=Cn1cnc(-c2cc(C(F)(F)F)cc(C(F)(F)F)c2)n1)NNc1cnccn1 + NC1CC1c1ccc(-c2cccc(O)c2)cc1 | Not met |

* * *

Tested on: 885512-296-R-J2-PDC complex spheroid viability
assay-method-text: Anticancer human tumor 885512-296-R-J2-PDC cell line growth inhibition; active = viability on the fitted dose curve at most 10% of control; inactive = the rest;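 further: spheroids exposed to agents for 7 days before viability read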
study-conditions: second compound 0.1 µM; first compound 0.0949 µM
Outcomes: T = active, F = inactive

| compound | classification |
| --- | --- |
| NS(=O)(=O)OCC1CC(n2ccc3c(NC4CCc5ccccc54)ncnc32)CC1O (centres undefined) + NC1CCC(NC2CC2c2ccccc2)CC1 | T |
| COc1cc(C2c3cc4c(cc3C(OC3OC5COC(C)OC5C(O)C3O)C3COC(=O)C23)OCO4)cc(OC)c1O (centres undefined) + NC1CC1c1ccc(-c2cccc(O)c2)cc1 | F |
| Nc1ccccc1NC(=O)c1ccc(CNC(=O)OCc2cccnc2)cc1 + NC1CCC(NC2CC2c2ccccc2)CC1 | F |
| CCc1c2c(nc3ccc(O)cc13)-c1cc3c(c(=O)n1C2)COC(=O)[C@]3(O)CC + NC1CC1c1ccc(-c2cccc(O)c2)cc1 | T |
